- targetSystem: LXRβ (Homo sapiens, UniProt P55055)
- Construct: Co-transfection expression plasmids, comprising full-length LXRα (pCMX-h LXRα[…] or LXRβ (pCMX-hLXRβ))
- Sequence (P55055 whole entry): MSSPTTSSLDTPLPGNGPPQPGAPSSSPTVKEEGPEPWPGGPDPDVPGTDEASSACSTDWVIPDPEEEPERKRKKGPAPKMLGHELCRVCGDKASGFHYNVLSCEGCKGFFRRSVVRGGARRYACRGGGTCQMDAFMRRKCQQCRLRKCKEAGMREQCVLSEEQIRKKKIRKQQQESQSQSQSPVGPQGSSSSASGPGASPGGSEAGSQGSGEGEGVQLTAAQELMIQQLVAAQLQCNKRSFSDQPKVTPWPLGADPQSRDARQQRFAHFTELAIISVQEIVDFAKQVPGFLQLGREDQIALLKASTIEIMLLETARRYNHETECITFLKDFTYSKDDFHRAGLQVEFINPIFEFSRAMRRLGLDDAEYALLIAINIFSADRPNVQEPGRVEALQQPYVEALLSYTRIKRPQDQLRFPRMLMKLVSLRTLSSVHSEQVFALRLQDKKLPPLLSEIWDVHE
- Sequence (P19793 whole entry partner): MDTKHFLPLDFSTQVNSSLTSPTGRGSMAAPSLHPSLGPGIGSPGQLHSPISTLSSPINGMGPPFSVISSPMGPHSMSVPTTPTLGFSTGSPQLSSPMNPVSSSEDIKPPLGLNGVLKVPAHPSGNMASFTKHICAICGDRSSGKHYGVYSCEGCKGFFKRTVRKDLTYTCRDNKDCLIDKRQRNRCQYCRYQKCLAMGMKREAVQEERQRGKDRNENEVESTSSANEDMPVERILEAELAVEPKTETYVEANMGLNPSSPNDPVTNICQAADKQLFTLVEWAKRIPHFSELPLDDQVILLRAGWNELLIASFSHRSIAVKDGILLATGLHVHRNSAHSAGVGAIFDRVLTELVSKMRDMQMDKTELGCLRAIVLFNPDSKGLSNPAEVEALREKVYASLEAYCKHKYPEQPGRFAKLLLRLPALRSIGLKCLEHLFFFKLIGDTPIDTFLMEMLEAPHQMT
- assayNotes: Co-transfection assay (LXRE luciferase reporter), LXRβ
- statedConditions: CV-1 cells transfected with pCMX-hLXRβ and LXREx1-Tk-Luciferase; 20 hours incubation
pEC50: −log10 of the molar value.
# pEC50 per entry

{"columns": ["smilesRepresentation", "targetSystem", "pEC50"],
 "data": [
  ["COCc1c(F)cc(-c2ccc(-n3cc(C(F)(F)F)nc3C)c(-n3nncc3-c3ccc(OC(F)(F)F)cc3)c2)cc1S(C)(=O)=O", "LXRβ (Homo sapiens, UniProt P55055)", 6.51],
  ["Cc1nc(-c2cc(-c3cccc(S(C)(=O)=O)c3)ccc2-n2cc(C(F)(F)F)nc2C)c(-c2ccc(OC(F)F)c(OC(F)F)c2)o1", "LXRβ (Homo sapiens, UniProt P55055)", 6.73],
  ["CS(=O)(=O)c1cccc(-c2ccc(-n3cnc(C(F)(F)F)c3)c(-n3nncc3-c3ccc(Cl)cc3)c2)c1", "LXRβ (Homo sapiens, UniProt P55055)", 6.02],
  ["Cc1nc(C(F)(F)F)cn1-c1ccc(-c2cccc(C(C)(C)C(N)=O)c2)cc1-n1nncc1Cc1cccc(Cl)c1", "LXRβ (Homo sapiens, UniProt P55055)", 6.03]
]}

###

- targetSystem: LXRβ (Homo sapiens)
- Construct: Co-transfection expression plasmids, comprising full-length LXRα (pCMX-h LXRα[…] or LXRβ (pCMX-hLXRβ))
- assayNotes: Co-transfection assay (LXRE luciferase reporter), LXRβ
- statedConditions: CV-1 cells transfected with pCMX-hLXRβ and LXREx1-Tk-Luciferase; 20 hours incubation

{"columns": ["smilesRepresentation", "EC50, nM"],
 "data": [
  ["Cc1cc(-c2cc(-c3cc(F)c(CO)c(S(C)(=O)=O)c3)ccc2-n2cc(C(F)(F)F)nc2C)n(-c2ccc(OC(F)F)cc2)n1", 26],
  ["Cc1nc(Cl)cn1-c1ccc(-c2cccc(S(C)(=O)=O)c2)cc1-n1nncc1-c1ccc(OC(F)(F)F)cc1", 444],
  ["Cc1nc(C(F)(F)F)cn1-c1ccc(-c2cccc(S(C)(=O)=O)c2)cc1-n1nncc1-c1ccc2[nH]ccc2c1", 1840],
  ["Cc1nc(C(F)(F)F)cn1-c1ccc(-c2cccc(S(C)(=O)=O)c2)cc1-n1nncc1-c1ccc(OCC(F)(F)F)cc1", 606],
  ["Cc1nc(C(F)(F)F)cn1-c1ccc(-c2cccc(S(C)(=O)=O)c2)cc1-n1nncc1-c1ccc(N(C)C)cc1", 113],
  ["Cc1ccc(-c2oc(C)nc2-c2cc(-c3cccc(S(C)(=O)=O)c3)ccc2-n2cc(C(F)(F)F)nc2C)cc1", 63]
]}

###

# Emax per entry
- targetSystem: LXRβ (Homo sapiens, UniProt P55055)
- Construct: Co-transfection expression plasmids, comprising full-length LXRα (pCMX-h LXRα[…] or LXRβ (pCMX-hLXRβ)); expressed in transfected cells; host or cells: CV-1 African Green Monkey Kidney Cells
- assayNotes: Co-transfection assay (LXRE luciferase reporter), LXRβ
- Assay type: cell-based
- statedConditions: LXRβ co-transfection; relative to high control 1-(2,4-difluorobenzyl)-2-oxo-6-(4-phenoxyphenyl)-4-(trifluoromethyl)-1,2-dihydropyridine-3-carbonitrile; read-out: % Efficacy

{"columns": ["molecule", "Emax, %"],
 "data": [
  ["Cc1nc(C(F)(F)F)cn1-c1ccc(-c2cccc(S(C)(=O)=O)c2)cc1-c1oc(CCN(C)C)nc1-c1ccc(OC(F)(F)F)cc1 [Example 628]", 82],
  ["Cc1nc(C(F)F)cn1-c1ccc(-c2ccc(CO)c(S(C)(=O)=O)c2)cc1-n1nncc1-c1ccc(OC(F)(F)F)cc1 [Example 159]", 97],
  ["Cc1nc(-c2cc(-c3cc(F)c(CO)c(S(C)(=O)=O)c3)ccc2-n2cc(C(F)(F)F)nc2C)c(-c2cccn(C(C)C)c2=O)o1 [Example 378]", 24],
  ["Cc1nc(C(F)(F)F)cn1-c1ccc(-c2cccc(S(C)(=O)=O)c2)cc1-n1nncc1-c1ccc(OC(F)(F)F)c(F)c1 [Example 54]", 84]
]}
